B1: Activity-dependent neuroprotector homeobox protein, residues 770 to 810; numbered along this chain, Q9H2P0 (parent)
chain: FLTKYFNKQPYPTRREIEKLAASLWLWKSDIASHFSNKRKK

Variants of: B1
MEASUREMENT NOTES: abundance fitness (aPCA) (normalised: wild type 0, dead -1); higher = more abundant; growth selection in yeast, the domain comes from the species named
MEASUREMENT PARAMETERS: Homo sapiens
Would you please tag the item satisfied when its abundance fitness is -0.1 or above, and not satisfied when it is below?

| SEQUENCE STRING | QUALITATIVE LABEL |
| --- | --- |
| FLTKYFNKQPYPTRREIEKLAASPWLWKSDIASHFSNKRKK [L24P] | not satisfied |
| FLTKYFNKQPYPTRREIEKLAASLWLWKSDIASHFSNQRKK [K38Q] | not satisfied |
| FLTKYFNKQPYPTRREIEILAASLWLWKSDIASHFSNKRKK [K19I] | not satisfied |
| FLTKYFNKQPYPTRREIEKLAASLWLWKSDCASHFSNKRKK [I31C] | satisfied |
| FLTKYFNKQPYPTRREIEKLAASLWLWKSDWASHFSNKRKK [I31W] | not satisfied |
| FLTKYFNKQPYPTRREIEKAAASLWLWKSDIASHFSNKRKK [L20A] | satisfied |
| FLTKYFNKQPYPTRRWIEKLAASLWLWKSDIASHFSNKRKK [E16W] | satisfied |
| FLTKYFNKQPYPWRREIEKLAASLWLWKSDIASHFSNKRKK [T13W] | satisfied |
| FLTKYFNKQPYPTRREIEKLAASLWLWKSDIAGHFSNKRKK [S33G] | satisfied |
| FLTKYFNKQPYPTRREIEKLAASLWIWKSDIASHFSNKRKK [L26I] | not satisfied |
| FLTKYFNKQPYPTRREIEKLAASLWLWKSDIASVFSNKRKK [H34V] | satisfied |
| FLTKYFNKQPYPTRVEIEKLAASLWLWKSDIASHFSNKRKK [R15V] | not satisfied |
| FLTKYFNKQPYPTRREIEKLRASLWLWKSDIASHFSNKRKK [A21R] | satisfied |
| FLTKYFNKQPYPTRREIEKLAASLWLWKSDIASHFSNKAKK [R39A] | satisfied |
